experiment: NCI Yeast Anticancer Drug Screen. Data for the sgs1 mgt1 strain (AID 161);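 also: 0% = growth of cultures given vehicle only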; details: S. cerevisiae sgs1 mgt1 strain, at 50.0 µM, active compounds read high
This is part of a sample that, as a whole, favours compounds with a hit. Of some 79,000 tested, about 15% had one in any assay.
Each entry below lists one item and its recorded growth inhibition value.
Give your result in % as a bare value.

Use the examples below as a reference point.
COMPOUND: COc1cc(C2C3=C(N=C4SC(C(C)=O)=C(C)N42)c2ccccc2CC3)cc(OC)c1OC (centres undefined)
UOM: %
growth inhibition: -22.2
//
COMPOUND: COc1ccc2nc3c(Cl)cccc3c(Cl)c2c1
UOM: %
growth inhibition: 3.4

Continue with the next compound.
For `Cc1cc2c(s1)C(=O)c1sccc1C2=O` the compound record lists growth inhibition as 89.8

---

test: NCI Yeast Anticancer Drug Screen. Data for the mlh1 rad18 strain (AID 175); conditions: S. cerevisiae mlh1 rad18 strain growth inhibition; at 50.0 µM
This is part of a sample that, as a whole, favours compounds with a hit. Of some 79,000 tested, about 15% had one in any assay. The source made the active and inactive calls. Rule as the data show it: active = growth inhibition above about 70%; inactive = the rest.
Respond only with the outcome that fits, drawn from TRUE (active), FALSE (inactive)

COMPOUND: CCCCOC(=O)c1cccc2c1-c1ccccc1C2=O
DISCRETE LABEL: FALSE
--
COMPOUND: COc1ccc(C2CCCCCC2OC(=O)c2ccc([N+](=O)[O-])cc2)c(OC)c1OC (stereo unspecified)
DISCRETE LABEL: FALSE
--
COMPOUND: COC(=O)/N=c1\cc(N2CC=CCC2)nc(N)n1O
DISCRETE LABEL: FALSE

## Task Give the logged outcome of this assay for the following compound: `COc1cc2ccccc2oc1=O`
## Result FALSE

## Task Called result for `Cc1ccc(C)c(NS(=O)(=O)c2ccc(Cl)c([N+](=O)[O-])c2)c1`
## Result TRUE

## Task Kindly provide the recorded test outcome for the following compound: `Nc1ncnc2c1ccn2Cc1c(Cl)cccc1Cl`
## Result FALSE

---

experiment: NCI Yeast Anticancer Drug Screen. Data for the mec2-1 strain (AID 157); conditions: S. cerevisiae mec2-1 strain, at 50.0 µM
Compounds without any hit were thinned out: in the full panel of roughly 79,000, 15% have a hit. Activity calls are given as the source filed them. Rule as the data show it: active = growth inhibition above about 70%; inactive = the rest.
Answer with one of the outcomes active, inactive

Below, 10 compounds whose answers are already recorded.
COMPOUND: Cc1cccc(O)c1C(=O)O
DISCRETE LABEL: inactive
--
COMPOUND: Cc1cc2c(SCc3ccccc3Cl)nc(N)nc2nc1C
DISCRETE LABEL: inactive
--
COMPOUND: COc1ccc(-c2c3c([nH]c(=S)c2C#N)CCC3)cc1
DISCRETE LABEL: inactive
--
COMPOUND: CN(CCO)CCC1COc2ccccc2O1 (configuration not stated)
DISCRETE LABEL: inactive
--
COMPOUND: CC(=O)OCC12CC(c3ccoc3)OC3CCC4C(=O)OC(CC1C)C4(C)C32 (configuration not stated)
DISCRETE LABEL: inactive
--
COMPOUND: CC1=C/C(=N/NS(=O)(=O)c2ccc(C)cc2)CC(C)(C)C1
DISCRETE LABEL: inactive
--
COMPOUND: Cc1ccc(C(=O)CCC(=O)OCC(=O)c2ccc(-c3ccccc3)cc2)cc1
DISCRETE LABEL: inactive
--
COMPOUND: CC(C)CC([N+](C)(C)C)P(=O)([O-])O (configuration not stated)
DISCRETE LABEL: inactive
--
COMPOUND: O=C(O)CSc1ncccc1[N+](=O)[O-]
DISCRETE LABEL: inactive
--
COMPOUND: CCCCn1c(=S)sc2ccccc21
DISCRETE LABEL: inactive

## Task Record lookup: outcome of this test for `COc1ccc(Cl)cc1NC(=O)c1cccc([N+](=O)[O-])c1O` ?
## Result inactive

## Task Tell me the assay call for `CSc1ncnc2[nH]ncc12` please.
## Result inactive
